molecular target: PEP2-4 dAb; assay: immunohistochemistry on cervical cancer sections, 20 nM PEP2-4 with added free peptide; estimate between no inhibition at 10 uM and clear inhibition at 100 uM
Sequence (chain, as listed by the source): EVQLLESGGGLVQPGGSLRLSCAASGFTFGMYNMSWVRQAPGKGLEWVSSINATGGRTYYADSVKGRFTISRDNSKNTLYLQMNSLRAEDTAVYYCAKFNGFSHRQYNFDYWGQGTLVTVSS
pIC50: −log10 of the molar value.
RESULT TYPE: pIC50

**Q:** For the binder GHNYTTRNILPGLNITC (modifications not checked) [E200 peptide] , what pIC50 is on record?
**A:** 4.30 to 4.40

Values compiled from patent US20150266969A1.
